The reader will find reported cell viability values listed item by item below.
Test system: Calu-3
Experiment: cell viability relative to DMSO; higher = less toxic
Conditions: 72 h; 10 nM
State just the number; it will be interpreted in %.

Use the examples below as a reference point.
O=C(/C=C/c1ccc(CN(CCO)CCc2c[nH]c3ccccc23)cc1)NO; 90.1
OC[C@H]1O[C@@H](n2cnc3c(NC4CCCC4)nc(Cl)nc32)[C@H](O)[C@@H]1O; 91.8
CCOc1cccc(NC(=O)c2ccc(N3CCCC3)c(C(F)(F)F)c2)c1; 99.5
CN(C)C(=O)[C@H](O)[C@H](Cc1ccccc1)NC(=O)c1cc2cc(Cl)ccc2[nH]1; 104
C[C@H]1[C@H](OC(=O)CCC(=O)O)O[C@@H]2O[C@@]3(C)CC[C@H]4[C@H](C)CC[C@@H]1[C@@]24OO3 [artesunate]; 98.3
N=C(N)NCCC[C@H](N)C(=O)O; 95.7
CC/C=C\C/C=C\C/C=C\C/C=C\C/C=C\C/C=C\CCC(=O)OCC; 104
O=S(=O)(O)c1ccc2[nH]c(-c3ccccc3)nc2c1; 112
O=C(/C=C/c1ccc(O)c(O)c1)c1ccc(O)cc1O; 103
CCC1(c2ccccc2)C(=O)NCNC1=O; 94.8

Query string: Reported cell viability, compound C/C=C(/C(=C/C)c1ccc(O)cc1)c1ccc(O)cc1 : ____
Result string: 91.4

Query string: Reported cell viability, compound O=C(O)c1cc(Oc2ccc([N+](=O)[O-])cc2)cc(Oc2ccc([N+](=O)[O-])cc2)c1 : ____
Result string: 104

Query string: Reported cell viability, compound CN1C(=O)CN=C(c2ccccc2)c2cc(Cl)ccc21 : ____
Result string: 92.4

Query string: Reported cell viability, compound CC(C)(C)c1ccc(C(=O)Nc2cn3cc(-n4ccnc4)ccc3n2)cc1 : ____
Result string: 95.6

----------
The reader will find reported cell viability values listed item by item below.
Tested on: HepG2
Test: cell viability relative to DMSO; higher = less toxic
Details: 72 h; 1000 nM
State just the number; it will be interpreted in %.

Use the examples below as a reference point.
CCC/N=C1\S/C(=C\c2ccc(OC[C@H](O)CO)c(Cl)c2)C(=O)N1c1ccccc1C; 102
CC[C@H]1OC(=O)[C@H](C)[C@@H](O[C@H]2C[C@@](C)(OC)[C@@H](O)[C@H](C)O2)[C@H](C)[C@@H](O[C@@H]2O[C@H](C)C[C@H](N(C)C)[C@H]2O)[C@](C)(O)C[C@@H](C)C(=O)[C@H](C)[C@@H](O)[C@]1(C)O; 91.4
CCCC(=O)N1CCCN(c2nc(N)c3cc(OC)c(OC)cc3n2)CC1; 94.3
CCCc1cc(C(N)=S)ccn1 [protionamide]; 103
CC(=O)N[C@@H](CSC/C=C(\C)CC/C=C(\C)CCC=C(C)C)C(=O)O; 102
Oc1c(I)cc(I)cc1I; 108
CN(C)c1ccc2c(c1)Sc1cc(N(C)C)ccc1N2; 76.4

Query string: Reported cell viability, molecule Nc1ncnc2[nH]nc(Nc3ccc(F)cc3)c12 : ____
Result string: 96.5

----------
System: Caco-2
Assay: cell viability relative to DMSO; higher = less toxic
Conditions: 72 h; 1 nM
measure: cell viability

Use the examples below as a reference point.
N=C(N)NCCC[C@H](NC(=O)[C@@H]1CCCN1C(=O)[C@@H]1CSSC[C@H](N)C(=O)N[C@@H](Cc2ccc(O)cc2)C(=O)N[C@@H](Cc2ccccc2)C(=O)N[C@@H](CCC(N)=O)C(=O)N[C@@H](CC(N)=O)C(=O)N1)C(=O)NCC(N)=O; 94.8%
C=CCNc1c(O)cc2c(O)c1C[C@@H](C)C[C@H](OC)[C@H](O)[C@@H](C)/C=C(\C)[C@H](OC(N)=O)[C@@H](OC)/C=C\C=C(/C)C(=O)N2; 92.1%
CNS(=O)(=O)Cc1ccc2[nH]cc(CCN(C)C)c2c1; 91.4%
NCCc1c[nH]cn1; 90.8%
CCC/N=C1\S/C(=C\c2ccc(OC[C@H](O)CO)c(Cl)c2)C(=O)N1c1ccccc1C; 91.2%
CN1c2ccccc2C(NCCCCCCC(=O)O)c2ccc(Cl)cc2S1(=O)=O (configuration not stated); 103%

Let us examine a further case.
Query string: Reported cell viability, molecule Oc1c(I)cc(I)cc1I : ____
Result string: 99.5%
